Biological target: NRAS WT (Homo sapiens (Human), UniProt P01111+P62937)
Sequence (P01111 whole entry): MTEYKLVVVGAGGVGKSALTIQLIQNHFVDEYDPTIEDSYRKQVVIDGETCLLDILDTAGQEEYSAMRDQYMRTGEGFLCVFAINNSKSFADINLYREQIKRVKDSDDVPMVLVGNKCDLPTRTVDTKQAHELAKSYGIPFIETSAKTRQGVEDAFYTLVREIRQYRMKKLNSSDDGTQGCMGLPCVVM
Sequence (P62937 whole entry): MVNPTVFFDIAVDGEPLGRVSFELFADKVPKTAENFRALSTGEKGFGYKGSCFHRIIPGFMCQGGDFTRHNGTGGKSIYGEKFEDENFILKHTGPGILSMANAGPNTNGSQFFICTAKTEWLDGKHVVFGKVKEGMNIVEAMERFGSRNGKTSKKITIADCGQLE
Experiment: Ras-Raf (BRAF RBD) disruption / FRET / MOA assay, NRAS WT
Type: biochemical
Conditions: read-out: IC50* NRAS WT FRET data
pIC50: −log10 of the molar value.
For each entry below, report its pIC50 value.

These recorded examples may help you get a feel for the data.
compound	system under test	pIC50
CO[C@@H](C)c1ncccc1-c1c2c3cc(ccc3n1CC(F)(F)F)-c1cccc(c1)C[C@H](NC(=O)[C@@H](COC1CN(C(=O)C#CC(C)(C)N(C)C)C1)C(C)C)C(=O)N1CCC[C@H](N1)C(=O)OCC(C)(C)C2 (atropisomer, axis not shown)	NRAS WT (Homo sapiens (Human), UniProt P01111+P62937)	5.00 to 6.00
CCn1c(-c2cccnc2[C@H](C)OC)c2c3cc(ccc31)-c1cccc(c1)C[C@H](NC(=O)[C@H](C1CCCC1)N(C)C(=O)[C@@H]1CN(C(=O)C#CC(C)(C)N(C)C)C[C@@H]1C)C(=O)N1CCC[C@H](N1)C(=O)OCC(C)(C)C2 (atropisomer, axis not shown)	NRAS WT (Homo sapiens (Human), UniProt P01111+P62937)	5.00 to 6.00
C=CC(=O)N1CCC2(CC1)CN(C(=O)N(C)[C@H](C(=O)N[C@H]1Cc3nc(cs3)-c3ccc4c(c3)c(c(-c3cccnc3[C@H](C)OC)n4CC)CC(C)(C)COC(=O)[C@@H]3CCCN(N3)C1=O)C(C)C)C2 (atropisomer, axis not shown)	NRAS WT (Homo sapiens (Human), UniProt P01111+P62937)	6.00 to 7.00

// below: pIC50 requested for another compound
### Prompt Please indicate pIC50 recorded for CO[C@@H](C)c1ncccc1-c1c2c3cc(ccc3n1CC(F)(F)F)-c1csc(n1)C[C@H](NC(=O)[C@@H](COC1CN(C(=O)C#CC(C)(C)N(C)C)C1)C(C)C)C(=O)N1CCC[C@H](N1)C(=O)OCC(C)(C)C2 (atropisomer, axis not shown)
### Response 5.00 to 6.00
